assay-comment: chemical genetic growth profiling, strain panel (AID 1159580);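 also: tested at 20 µM; growth read once vehicle control cultures reached saturation at 30 °C; 1 = growth at the plate median or of vehicle wells; lower values mean less growth of the strain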
details: S. cerevisiae deletion strains, growth OD, locus YMR205C, strain PFK2, hits give low values
The whole screen tested about 5,500 compounds, of which about 2,000 (36%) were called active. Inconclusive results (about 18%) are left out. Some of the results follow.
Listed next: entries and their corresponding normalized growth.
Returns: the value as a bare number; no unit string appended.

1. COc1cc([C@@H]2c3cc4c(cc3[C@H](O)[C@H]3COC(=O)[C@H]23)OCO4)cc(OC)c1OC = 1.03

// normalized growth lookup, molecule = CC1(C)CC23C(=O)CCC(O)C2(C)CCC13 (stereo unspecified) , result: 0.999

Input CC(NC(C)(C)C)C(=O)c1cccc(Cl)c1 (stereo unspecified) . Output normalized growth: 0.982

Input COc1cc(OC)c2c(OC)c(-c3ccc4c(c3)OCO4)c(=O)oc2c1 . Output normalized growth: 0.866

Noted for CNC(=O)N(C)c1nnc(C(C)(C)C)s1 : its normalized growth reads 0.969

get_value(item= C=C[C@H]1CN2CC[C@H]1C[C@H]2[C@H](O)c1ccnc2ccccc12 , readout=normalized growth) returns 1

Lab note: measured normalized growth of CC(=O)Oc1c(C)c(C)c2c(c1C)CCC(C)(CCCC(C)CCCC(C)CCCC(C)C)O2 (stereo unspecified) was 0.96

The molecule CC(=O)c1c(O)cc(O)cc1O showed normalized growth equal to 1.03

GET /value?item= CC(=O)NS(=O)(=O)c1ccc(N)cc1 &field=normalized growth returns 1.02

The reported value for CNC(C)[C@@H]1CC[C@@H](N)[C@@H](OC2[C@@H](N)C[C@@H](N)[C@H](OC3OC[C@](C)(O)[C@H](NC)[C@H]3O)[C@H]2O)O1 (stereo partly specified) in terms of normalized growth is 0.987

normalized growth recorded for this molecule, CC(C)N1C(=O)c2ccccc2NS1(=O)=O , is 0.961

molecule CN1CCCCC1c1ccc(-c2cccnc2)nc1 (stereo unspecified) , normalized growth observed: 0.934

What the record says about CC(=O)OCC1=C(C(=O)O)N2C(=O)[C@@H](NC(=O)CSc3ccncc3)[C@H]2SC1 : normalized growth is 1.02

Record summary for COC(=O)CC1C(C)(C(=O)c2ccoc2)CC2OCC34C(CC(=O)OC)C5(C)CC36OC3(C)OC1(C(OC(C)=O)C6(OC(C)=O)C5OC(=O)C(C)C)C24O3 (stereo unspecified) : reported normalized growth = 0.957

Reported normalized growth ( C=C(C)C1Cc2c(ccc3c(=O)c4c(oc23)COc2cc(OC)c(OC)cc2-4)O1 (stereo unspecified) ) = 1.02

Noted for COc1cc(O)c2c(c1)C(=O)c1cc(C)cc(O)c1C2=O : its normalized growth reads 0.97

Short answer for O=c1c(O)cccc2cc(O)c(O)c(O)c12 : normalized growth was 0.511

# normalized growth of NC(Cc1ccc(Cl)cc1)C(=O)O (stereo unspecified) = 0.991

The molecule listed as CCCN(CCC)c1c([N+](=O)[O-])cc(C(F)(F)F)cc1[N+](=O)[O-] shows normalized growth equal to 0.977

Query O=C1NS(=O)(=O)c2ccccc21 yields normalized growth of 1.03

Form field normalized growth, entry CC[C@H]1OC(=O)[C@H](C)[C@@H](O[C@H]2C[C@@](C)(OC)[C@@H](O)[C@H](C)O2)[C@H](C)[C@@H](O[C@@H]2O[C@H](C)C[C@H](N(C)C)[C@H]2O)[C@](C)(O)C[C@@H](C)/C(=N/OCOCCOC)[C@H](C)[C@@H](O)[C@]1(C)O : 0.99
